Test system: various lung cancer cell lines
Assay: Long term proliferation (LTP) assay in various cancer cell lines
Format: cell-based
Settings: Homo sapiens, NCI-H810, NCIH810; SMARCA4 protein Present; Lung NSCLC large cell carcinoma
Procedure: The following cell lines were evaluated in an adherent cell line proliferation assay described herein: A549, HCC15, COV434, NCIH460, NCIH358, NCIH358-SMARCA2, NCIH358-SMARCA, NCIH1703, NCIH838, NCIH322, NCIH2122, NCIH2023, NCIH1355, NCIH1693, NCIH441, NCIH2030, NCIH1573, NCIH1373, NCIH1650, and NCIH1693. Plating densities for each cell line were determined based on growth curves (measured by ATP viability) and density over a 7 day timecourse. […]
readoutType: IC50 (nM)

(P) O=C(Nc1cc(F)c(=O)n(CC(F)F)c1)c1cc(Cl)c(C(F)(F)F)s1 [Compound 298]
(Q) N#Cc1sc(C(=O)Nc2cc(F)c(=O)n(CCF)c2)cc1Cl [Compound 139]
Return label of the item with the larger IC50. Candidates: P , Q . Indicate your choice by writing its label.
P
(P: 946 nM, Q: 174 nM)

---

Biological target: FL-SMARCA4 (Homo sapiens, UniProt P51532)
Sequence (P51532 whole entry): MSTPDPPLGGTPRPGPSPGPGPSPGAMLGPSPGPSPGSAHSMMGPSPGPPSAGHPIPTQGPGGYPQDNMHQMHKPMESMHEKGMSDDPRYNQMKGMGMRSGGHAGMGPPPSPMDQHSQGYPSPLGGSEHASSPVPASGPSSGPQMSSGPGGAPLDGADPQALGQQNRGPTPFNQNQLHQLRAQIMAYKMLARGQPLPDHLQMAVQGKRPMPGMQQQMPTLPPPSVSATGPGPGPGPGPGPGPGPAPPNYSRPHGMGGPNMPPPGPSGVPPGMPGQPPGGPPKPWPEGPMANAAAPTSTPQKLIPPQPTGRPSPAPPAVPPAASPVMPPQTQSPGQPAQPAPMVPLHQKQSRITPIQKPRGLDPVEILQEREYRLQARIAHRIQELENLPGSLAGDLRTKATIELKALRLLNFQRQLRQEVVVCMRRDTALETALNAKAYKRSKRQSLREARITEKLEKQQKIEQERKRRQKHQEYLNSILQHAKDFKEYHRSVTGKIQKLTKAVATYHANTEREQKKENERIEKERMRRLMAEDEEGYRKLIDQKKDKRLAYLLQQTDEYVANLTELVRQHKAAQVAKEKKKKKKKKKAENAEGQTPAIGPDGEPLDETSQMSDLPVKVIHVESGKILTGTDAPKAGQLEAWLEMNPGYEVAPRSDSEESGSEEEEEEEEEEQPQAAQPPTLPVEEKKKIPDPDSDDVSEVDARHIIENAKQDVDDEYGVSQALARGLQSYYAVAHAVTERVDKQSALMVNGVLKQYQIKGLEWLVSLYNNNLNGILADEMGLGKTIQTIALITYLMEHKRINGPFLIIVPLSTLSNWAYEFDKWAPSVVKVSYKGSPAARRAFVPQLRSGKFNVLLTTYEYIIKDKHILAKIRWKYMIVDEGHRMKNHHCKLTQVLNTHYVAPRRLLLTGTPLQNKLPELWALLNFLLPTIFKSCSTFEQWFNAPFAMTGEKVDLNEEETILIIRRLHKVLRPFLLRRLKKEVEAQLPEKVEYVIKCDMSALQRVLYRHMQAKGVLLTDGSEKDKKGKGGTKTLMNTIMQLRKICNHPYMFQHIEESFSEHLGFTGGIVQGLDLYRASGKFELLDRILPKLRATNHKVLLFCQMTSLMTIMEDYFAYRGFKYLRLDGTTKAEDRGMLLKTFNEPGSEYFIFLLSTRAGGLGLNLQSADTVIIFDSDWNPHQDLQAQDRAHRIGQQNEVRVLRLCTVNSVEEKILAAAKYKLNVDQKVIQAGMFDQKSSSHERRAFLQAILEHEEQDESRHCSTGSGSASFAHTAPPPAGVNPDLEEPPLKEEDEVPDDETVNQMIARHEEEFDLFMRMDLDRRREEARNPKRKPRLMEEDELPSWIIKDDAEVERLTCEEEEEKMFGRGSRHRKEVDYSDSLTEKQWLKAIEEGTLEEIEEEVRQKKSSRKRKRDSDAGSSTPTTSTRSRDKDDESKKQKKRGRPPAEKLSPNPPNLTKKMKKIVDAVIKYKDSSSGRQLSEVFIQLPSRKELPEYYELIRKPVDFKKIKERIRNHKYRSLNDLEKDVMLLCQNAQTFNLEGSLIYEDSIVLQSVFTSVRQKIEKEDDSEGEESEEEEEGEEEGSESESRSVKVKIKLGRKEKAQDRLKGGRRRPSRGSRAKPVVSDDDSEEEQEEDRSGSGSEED
Test: SMARCA4 ATPase activity assay (ADP-Glo, chicken mononucleosome substrate)
Settings: FL-SMARCA4 IC50, Table 3.2; ATPase assay, enzyme 5 nM, ATP 250 uM, chicken mononucleosome 10 nM, 30 min preincubation
readoutType: IC50 (µM)

Example compounds with recorded IC50:
compound: CC(CF)n1cc(NC(=O)c2cc(Cl)c(C(F)(F)F)s2)cc(F)c1=O (stereo not shown)
IC50, µM: 4.89

compound: N#Cc1cc(C(=O)Nc2cc(F)c(=O)n(CC(F)(F)F)c2)sc1C#N
IC50, µM: 0.0851

compound: N#Cc1sc(C(=O)Nc2cc(F)c(=O)n(CC(F)F)c2)cc1Cl
IC50, µM: 0.0868

compound: N#Cc1[nH]c(C(=O)Nc2cc(Cl)c(=O)n(CCF)c2)cc1Cl
IC50, µM: 0.653

compound: CCn1cc(NC(=O)c2cnc(Cl)s2)ccc1=O
IC50, µM: 11.7

(A) CCn1cc(NC(=O)c2cc(Cl)c(C#N)[nH]2)cc(F)c1=O
(B) N#Cc1cc(C(=O)Nc2cc(Cl)c(=O)n(CCF)c2)[nH]c1Cl
# returns the entry with the larger IC50; inputs A and B Indicate your choice by writing its label.
B
(B: 2.39 µM, A: 0.272 µM)

(I) Cn1c(C(=O)Nc2ccc(=O)n(CCF)c2)cc(Cl)c1Cl
(II) N#Cc1[nH]c(C(=O)Nc2cc(F)c(=O)n(CCF)c2)cc1Cl
Hi, I'm comparing two records. Which one has the lower IC50, I or II ? Answer with the label corresponding to your selection.
II

---

Target: FL-SMARCA4 (Homo sapiens)
Experiment: SMARCA4 ATPase activity assay (ADP-Glo, chicken mononucleosome substrate)
Conditions: FL-SMARCA4 IC50
pIC50: −log10 of the molar value.
readoutType: pIC50

(1) N#Cc1cc(C(=O)Nc2cc(O)c(=O)n(CC(F)F)c2)sc1C(F)(F)F [Compound 88d]
(2) N[C@H]1CC[C@H](C#Cc2cc(C(=O)Nc3cc(F)c(=O)n(CC(F)F)c3)sc2Cl)CC1 [Compound 66d]
(3) CNC(=O)c1cc(C#Cc2cc(C(=O)Nc3cc(F)c(=O)n(CC(F)F)c3)sc2Cl)on1 [Compound 55d]
(4) CC(F)(F)c1sc(C(=O)Nc2cc(F)c(=O)n(CC(F)F)c2)cc1C#N [Compound 83d]
Sort the listed compounds above so the one with the largest pIC50 comes first and the smallest comes last. Reply format: the labels, ordered as requested.
3, 2, 4, 1
